Give koff for every item shown.
target: T1, hVISTA-ECD 6-His tag (human, UniProt Q9H7M9 33-193); assay: SPR 37 C, Ab on Protein A, pH 6.0
T1 construct: also called monovalent hVISTA-ECD; human VISTA
T1 sequence (Q9H7M9 other isoform, or with tags, fused parts or gaps limits assumed): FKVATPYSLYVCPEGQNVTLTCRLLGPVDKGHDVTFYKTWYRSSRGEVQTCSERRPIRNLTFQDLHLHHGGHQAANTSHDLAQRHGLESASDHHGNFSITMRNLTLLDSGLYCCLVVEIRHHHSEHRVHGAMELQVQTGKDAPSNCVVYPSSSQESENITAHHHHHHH
Answers are plain numbers, in s⁻¹.

INSERT INTO results (binder, recorded_value) VALUES
  ('P1-077859 (P1-068744 H50I E100S) (antibody, V domains shown) VH: QVQLVESGGGVVQPGRSLRLSCAASGFTFSEYAMHWVRQAPGKGLEWVAIIWYDGSNKYEADSVKGRFTISRDNSKNTLYLQMNSLRAEDTAVYYCARDSGFYSSYYFDEWGQGTLVTVSS VL: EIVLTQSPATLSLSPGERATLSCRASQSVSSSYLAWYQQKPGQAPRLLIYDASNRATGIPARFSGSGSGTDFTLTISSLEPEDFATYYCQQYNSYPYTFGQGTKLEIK', 0.0032);

Please give the measured koff for this binder: P1-077837 (P1-068744 H50I) (antibody, V domains shown) VH: QVQLVESGGGVVQPGRSLRLSCAASGFTFSEYAMHWVRQAPGKGLEWVAIIWYDGSNKYEADSVKGRFTISRDNSKNTLYLQMNSLRAEDTAVYYCARDSGFYESYYFDEWGQGTLVTVSS VL: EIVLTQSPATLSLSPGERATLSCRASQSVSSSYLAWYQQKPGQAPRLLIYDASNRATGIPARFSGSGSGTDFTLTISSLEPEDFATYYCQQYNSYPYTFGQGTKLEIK 0.003
